Test: yeast display, Sf9 membrane polyspecificity reagent, FACS + sequencing; frameworks hold sequencing errors
MEASUREMENT TYPE: polyreactivity (PSR sort gate)

>  <CONSTRUCT SEQUENCE>
QVQLVESGGGLVQAGGSLRLSCAASGRTFIYYAMGWYTQAPRKERDYVAIITWNGTSTNYADSVKGRFTISRDNAKNTVYLQMNSLYPEDTAVYYCAASFWTDYYRYDYWGQGTQVTVSS

>  <polyreactivity (PSR sort gate)>
low polyreactivity

$$$$
>  <CONSTRUCT SEQUENCE>
QVQLVESGGGLVQAGGSLRLSCAASGSTFKVYAMGWYRQAPGKERELVAVISGGGRTNYADSVKGRFTISRDNAKNTVYLQMNSLKPEDTAVYYCAAQATYHRYYTYYYWGQGTKVTVSS

>  <polyreactivity (PSR sort gate)>
high polyreactivity

$$$$
>  <CONSTRUCT SEQUENCE>
QVQLVESGGGLVQAGGSLRLSCAASGSTLARNVMGWYRQAPGKERELVAAISTSGGITYYADSVKGRFTISRDNAKNTVYLQMNSLKPEDTADYYCAKYYYNPYSKMDYWGQGTQVTVSS

>  <polyreactivity (PSR sort gate)>
low polyreactivity

$$$$
>  <CONSTRUCT SEQUENCE>
QVQLVESGGGLVQAGGSLRLSCAASGFTFERYTMGWYRQAPGKERELVATISRRSGRTSYADSVKGRFTISRDNAKNSVYLQMNSLKPEDTAVYYCAVDDAYPDRYDYWGQGTQVTVSS

>  <polyreactivity (PSR sort gate)>
high polyreactivity

$$$$

Read the next record carefully.
Would you kindly share the measured polyreactivity (PSR sort gate) for QVQLVESGGVLVQAGGSLRLSCAASGITLPVYGMGWYRQAPGKERELVAVIDIVGITNYADSVKGRFTISRDNAKNTVYLQMNSLNPEDTAVYYCAKRYVYIADGGEYYYWGQGTQVTVSS ?
low polyreactivity

====

Assay: yeast display, Sf9 membrane polyspecificity reagent, FACS + sequencing; frameworks hold sequencing errors
MEASUREMENT TYPE: polyreactivity (PSR sort gate)

Example sequences with recorded polyreactivity (PSR sort gate):
>  <CONSTRUCT SEQUENCE>
QVQLVESGGGLVQAGGSLRLSCAASGSTFPTYAMGWYRQAPGKERELVAAISFSGARTYYADSVKGRFTISRDNAKNTVYLQMNSLKPEDTAVYYCAKASSYSRRYEYWGQGTQVTVSS

>  <MEASUREMENT TYPE>
polyreactivity (PSR sort gate)

>  <RESULT>
high polyreactivity

$$$$
>  <CONSTRUCT SEQUENCE>
QVQLVESGGGLVLAGGRLRLSCAASGFTFGPYAMGWSRQAPGKERELVAAISQSGGRTSYAVSVKGRFTISRDNGKNTVYLQMNSLKPEDTAVYYCAKRANGYRSIYRMDYWGQGTQVTVSS

>  <MEASUREMENT TYPE>
polyreactivity (PSR sort gate)

>  <RESULT>
high polyreactivity

$$$$
>  <CONSTRUCT SEQUENCE>
QVQLVESGGGLVQAGGSLRLSCASSGRTFGLYDMGWYRQAPGKERELVAGITRRGGRTYYADSVKGRFTISRDNAKNPVELLMHCRKPEDTAVYYCNKVVTRWNQRWRYSEGNYWGQGTQVTVSS

>  <MEASUREMENT TYPE>
polyreactivity (PSR sort gate)

>  <RESULT>
high polyreactivity

$$$$
>  <CONSTRUCT SEQUENCE>
QVQLVESGGGIVQAGGSLRLRCAASGFIFAVNAKGWYRQAPGKESELVAAISSSGTTNYADSVKGRFTISRDNAKNTVYLQMNSLKPEDTAVYYCNKRWRDKYPQYDYWGLGTQVTVSS

>  <MEASUREMENT TYPE>
polyreactivity (PSR sort gate)

>  <RESULT>
low polyreactivity

$$$$

Would you kindly share the measured polyreactivity (PSR sort gate) for QVQLVESGGGIVQAGGSLRLRCAASGSIFVPYAMGWYRQAPGKERELVAAISSRGGRTYYADSVKGRFTISRDNAKNTVYLQMNSLKPEDTAVYYCNKTAGSHIPRLEYWGQGTQVTVSS ?
low polyreactivity

====

Assay: yeast display, Sf9 membrane polyspecificity reagent, FACS + sequencing; frameworks hold sequencing errors
MEASUREMENT TYPE: polyreactivity (PSR sort gate)

Example sequences with recorded polyreactivity (PSR sort gate):
>  <CONSTRUCT SEQUENCE>
QVQLVESGGGLVQAGGSLRLRCAASGIIFEYYAMGLYRQAPGKERELVAAITRGGTTYYADSVKGRFTISRDNAKNTVYLQMNSLKPEDTAVYYCNADSVAYGDEYDFWGQGTQVTVSS

>  <RESULT>
low polyreactivity

$$$$
>  <CONSTRUCT SEQUENCE>
QVQLVESGGGLVQAGGSLRLSCAASGRIFSVNAMGWYRQAPGKERELVASISWSGGSTYYADSVKGRFTISRDNAKNTVYLQMNSLKPEDTAVYYCNARIESYWLDFDYWGQGTQVTVSS

>  <RESULT>
low polyreactivity

$$$$
>  <CONSTRUCT SEQUENCE>
QVQLVESGGGLVQAGGSLRFSCAASGRTFYPYAMGWYRQAPGKERELVAAINGGGRTYYADSVKGRFTISRDNAKNTVYLQMNSLKPEDTAVYYCATRYPAWRYDYNYWGQGTQVSVSS

>  <RESULT>
high polyreactivity

$$$$
>  <CONSTRUCT SEQUENCE>
QVQLVESGGGLVQAGGSLRLSCAASGRIFVYNAMGWYRQAPGKERELVAAISGGGSTYYADSVKGRFTISRDNAKNTVYLQMNSLKPEDTAVYYCNTVFSGYARGWFQPAYNYWGQGTQVTVSS

>  <RESULT>
high polyreactivity

$$$$

Read the next record carefully.
Would you kindly share the measured polyreactivity (PSR sort gate) for QVQHVESGGGLVQAGGSLRLSCAASGSIFHVNAMGWYRQAPGKERELVAAISSSGGRTYYADSVKGRFTISRDNAKNTVYLQMNSLKPEDTAVYYCAAASQVRQPPNGGNGYWGQGTQVTVSS ?
high polyreactivity

====

Assay: yeast display, Sf9 membrane polyspecificity reagent, FACS + sequencing; frameworks hold sequencing errors
MEASUREMENT TYPE: polyreactivity (PSR sort gate)

>  <CONSTRUCT SEQUENCE>
QVQLVESGGGLVQAGGSLRLSCAASGSIFGRYVMGWYRQAPGKEREFVAAITYSGSSTYYADSVKGRFTISRDNAKNTVYLQMNSLKPEDTAVYYCNTYPRSFYWMGYWGQGTQVTVSS

>  <polyreactivity (PSR sort gate)>
high polyreactivity

$$$$
>  <CONSTRUCT SEQUENCE>
QVQLVESGGGVVQAGGSLLLSCAASGRIFWYYAMGWYRQAHGKERELVATITRGGNTYFADSVKGRFTISRDNAKNTVYLQMNSLKPEDNAVYYCAASQRYSVIYYGFSEYDYWGQGTQVTVSS

>  <polyreactivity (PSR sort gate)>
high polyreactivity

$$$$
>  <CONSTRUCT SEQUENCE>
QVQLVESGGGLVQAGGSLRLRCAASGFIFDYYAMGWYRQAPGKEWELVAGISWSGGSTYYADSVKGRFTISRDNAKNTVYLQMNSLKPEDTAVYYCATDDYLVIFEYDYWGQGTQVTVSS

>  <polyreactivity (PSR sort gate)>
low polyreactivity

$$$$
>  <CONSTRUCT SEQUENCE>
QVQLVESGGGLVQAGGSLRLSCAASGNTLRYYAMGWYRQAPGKERELVAAITRRGGSTYADSVKGRFTISRDNAKNTVYLQMNSLKPEDTAVYYCNRVLYDHSFPYNRGYDYWGQGTQVTVSS

>  <polyreactivity (PSR sort gate)>
high polyreactivity

$$$$
>  <CONSTRUCT SEQUENCE>
QVQLVESWGGLVQAGGSHRLSCAASGRTFPIYAMGWYRQAPGKERELVAAITYSGGSTYYADSVKGRFTISRDNAKNTVYLQMNSLKPEDTAVYYCAVDGTKPYWHQRYDYWGQGTQVTVSS

>  <polyreactivity (PSR sort gate)>
low polyreactivity

$$$$

Would you kindly share the measured polyreactivity (PSR sort gate) for QVQLVESGGGLVQAGGSLRLSCAASGFILGYNAMGWYRQEPGKERELVADITFSGGGTNYADSVKGRFTISRDNAKNTVYLQMNSLKPEDTAVYYCNAAAFSQLRVRYDYWGQGTQVTVSS ?
low polyreactivity

Would you kindly share the measured polyreactivity (PSR sort gate) for QVQLVESGGGLVQAGGSLRLSCAASGSIFSANAMGWYRQAPGKERELVAAITSGDSTKYADSVKGRFTISRDNAKNTVYLQMNSLKPEDTAVYYCAVDRGEYKNRVGEEYWGQGTQVTVSS ?
low polyreactivity

Would you kindly share the measured polyreactivity (PSR sort gate) for QVQLVESGGGLVQAGGSLRLSCAASGITFSGYGMGWYRQAPGKERELVAAISRSGGSTYYADSVKGRFTISRDNAKNTVYLQMNSLKPEDTAVYYCATASRTSRTGWAGYYWGQGTQVTVSS ?
high polyreactivity
